# targetOrTestSystem: HIV-1 Env of 96ZM651.02 (HIV-1)
# testProtocol: cell-based or functional assay
reportedMetric: neutralization IC50

Consider the reported neutralization IC50 for these binders:
# binder, neutralization IC50
records = [
    ("CAP256-VRC26.07 (antibody, V domains shown) VH: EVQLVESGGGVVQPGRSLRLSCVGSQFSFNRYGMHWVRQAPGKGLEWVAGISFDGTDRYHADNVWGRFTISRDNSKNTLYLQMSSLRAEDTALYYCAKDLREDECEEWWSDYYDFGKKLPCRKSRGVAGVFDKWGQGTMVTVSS VL: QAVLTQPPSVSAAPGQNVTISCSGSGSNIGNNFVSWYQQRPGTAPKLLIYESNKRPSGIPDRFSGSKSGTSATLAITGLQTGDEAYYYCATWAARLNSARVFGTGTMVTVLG", "> 50 µg/mL"),
    ("CAP256-VRC26.12 (antibody, V domains shown) VH: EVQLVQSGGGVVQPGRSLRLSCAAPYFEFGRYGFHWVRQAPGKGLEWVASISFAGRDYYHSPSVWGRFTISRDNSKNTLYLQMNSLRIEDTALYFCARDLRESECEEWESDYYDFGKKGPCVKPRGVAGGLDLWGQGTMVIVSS VL: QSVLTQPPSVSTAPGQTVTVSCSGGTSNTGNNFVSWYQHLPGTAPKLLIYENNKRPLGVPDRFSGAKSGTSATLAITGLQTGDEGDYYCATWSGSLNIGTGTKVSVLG", "> 50 µg/mL"),
]

Okay, now this binder:
(Q) Which neutralization IC50 value belongs to CAP256-VRC26.03 (antibody, V domains shown) VH: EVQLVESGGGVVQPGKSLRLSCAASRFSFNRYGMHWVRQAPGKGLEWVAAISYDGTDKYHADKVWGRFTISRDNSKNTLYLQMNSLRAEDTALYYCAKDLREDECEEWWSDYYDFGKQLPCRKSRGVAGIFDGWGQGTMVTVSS VL: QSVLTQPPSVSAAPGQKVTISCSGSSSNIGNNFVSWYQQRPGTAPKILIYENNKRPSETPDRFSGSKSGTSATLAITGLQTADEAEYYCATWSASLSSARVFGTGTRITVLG ?
(A) > 50 µg/mL

Reference source for all entries: patent US20200199204A1
